Target: human APJ receptor (Homo sapiens, UniProt P35414)
Construct: expressed in transfected cells
Sequence (P35414 1-380): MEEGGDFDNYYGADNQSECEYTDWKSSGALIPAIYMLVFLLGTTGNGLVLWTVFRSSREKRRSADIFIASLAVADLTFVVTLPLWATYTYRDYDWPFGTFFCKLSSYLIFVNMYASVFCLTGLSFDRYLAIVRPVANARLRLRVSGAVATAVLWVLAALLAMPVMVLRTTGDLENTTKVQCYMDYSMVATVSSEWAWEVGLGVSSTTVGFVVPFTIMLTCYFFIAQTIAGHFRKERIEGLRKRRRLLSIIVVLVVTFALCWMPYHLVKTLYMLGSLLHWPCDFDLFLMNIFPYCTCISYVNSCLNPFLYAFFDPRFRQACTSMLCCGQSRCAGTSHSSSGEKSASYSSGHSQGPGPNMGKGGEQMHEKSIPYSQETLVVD
Assay: Intracellular cAMP accumulation assay (APJ hcAMP, HTRF)
Assay type: cell-based
Conditions: Table 3; HEK293 cells stably expressing human APJ receptor; read-out: APJ cAMP Human EC50
measurement-type: EC50

Reference set, count: 5
COC[C@@H](NC(=O)c1ccc(-c2cc(Cl)ccc2-c2nc3ccccc3n2C)c(C(=O)O)c1)c1ccccc1 [Example 138] : 101 to 500 nM
CCC[C@@H](NC(=O)c1ccc(-c2c(Cl)cccc2-c2nc3cc(Cl)c(F)cc3[nH]2)c(C(=O)O)c1)c1ccccc1 (atropisomer, axis not shown) [Example 108] : < 10 nM
COc1cc2[nH]c(-c3cccc(Cl)c3-c3ccc(C(=O)NCc4ccc(Cl)cc4)cc3C(=O)O)nc2cc1F [Example 120] : 10 to 100 nM
COc1cc2[nH]c(-c3cccc(Cl)c3-c3ccc(C(=O)N4CCC(c5ccccc5)CC4)cc3C(=O)O)nc2cc1F [Example 110] : < 10 nM
CCC[C@@H](NC(=O)c1ccc(-c2c(Cl)cccc2-c2nc3ccc(F)c(F)c3[nH]2)c(C(=O)O)c1)c1ccccc1 (atropisomer, axis not shown) [Example 88] : < 10 nM

Please find the next compound below.
**Q:** Provide only the value of recorded EC50 for CCC[C@@H](NC(=O)c1ccc(-c2c(C)cccc2-c2nc3cnccc3[nH]2)c(C(=O)O)c1)c1ccccc1 [Example 149]
**A:** < 10 nM

----------
Molecular target: human APJ receptor (Homo sapiens, UniProt P35414)
Construct: expressed in transfected cells
Sequence (P35414 1-380): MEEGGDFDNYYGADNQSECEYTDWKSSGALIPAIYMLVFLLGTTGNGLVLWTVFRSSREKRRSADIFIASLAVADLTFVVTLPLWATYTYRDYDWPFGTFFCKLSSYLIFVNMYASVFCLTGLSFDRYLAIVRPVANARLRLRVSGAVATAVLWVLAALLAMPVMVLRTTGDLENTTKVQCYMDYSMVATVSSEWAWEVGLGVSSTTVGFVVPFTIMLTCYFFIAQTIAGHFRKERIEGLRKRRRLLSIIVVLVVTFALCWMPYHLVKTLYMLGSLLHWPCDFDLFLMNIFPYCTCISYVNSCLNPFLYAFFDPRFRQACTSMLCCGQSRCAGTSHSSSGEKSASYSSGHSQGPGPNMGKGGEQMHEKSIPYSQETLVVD
Experiment: Intracellular cAMP accumulation assay (APJ hcAMP, HTRF)
Type: cell-based
Conditions: Table 1; HEK293 cells stably expressing human APJ receptor; inhibition of forskolin-mediated cAMP production; read-out: APJ hcAMP EC50
pEC50: −log10 of the molar value.
measurement-type: pEC50

O=C(N[C@H](CN1CCOCC1)c1ccccc1)c1ccc(-c2c(Cl)cccc2-c2nc3ccccc3[nH]2)c(C(=O)O)c1 (atropisomer, axis not shown) : > 8.00
CCC[C@@H](NC(=O)c1ccc(-c2ccc(Cl)cc2-c2nc3cc(C(C)(C)C)ccc3[nH]2)c(C(=O)O)c1)c1ccccc1 : 7.00 to 8.00

Please find the next compound below.
**Q:** Answer with pEC50 of CCC[C@H](NC(=O)c1ccc(-c2c(Cl)cccc2-c2nc3ccccc3[nH]2)c(C(=O)O)c1)c1ccc(Cl)cc1C(F)(F)F measured for human APJ receptor (Homo sapiens, UniProt P35414).
**A:** > 8.00

----------
Target: human APJ receptor (Homo sapiens, UniProt P35414)
Construct: expressed in transfected cells
Assay: Intracellular cAMP accumulation assay (APJ hcAMP, HTRF)
Format: cell-based
Settings: Table 2; HEK293 cells stably expressing human APJ receptor; read-out: APJ cAMP Human EC50
pEC50: −log10 of the molar value.
measurement-type: pEC50

CCC[C@@H](NC(=O)c1ccc(-c2cc(C(F)(F)F)ccc2-c2nc3cc(OC)ccc3[nH]2)c(C(=O)O)c1)c1ccccc1 : > 8.00
CCC[C@@H](NC(=O)c1cc(C(=O)O)c(-c2cc(Cl)ccc2-c2nc3ccccc3[nH]2)cc1C)c1ccccc1 : > 8.00

Give pEC50 for each listed item.
1. CCC[C@@H](NC(=O)c1ccc(-c2ccccc2-c2nc3cc(OC)ccc3[nH]2)c(C(=O)O)c1)c1ccccc1
2. CCC[C@@H](NC(=O)c1ccc(-c2ccc(F)cc2-c2nc3ccccc3[nH]2)c(C(=O)O)c1)c1ccccc1
3. CCC[C@@H](NC(=O)c1ccc(-c2cc(Cl)ccc2-c2nc3ncncc3[nH]2)c(C(=O)O)c1)c1ccccc1
4. CN(C)C[C@@H](NC(=O)c1ccc(-c2cc(Cl)ccc2-c2nc3ccccc3[nH]2)c(C(=O)O)c1)c1ccccc1
5. CCC[C@@H](NC(=O)c1cc(C(=O)O)c(-c2cc(Cl)ccc2-c2nc3cc(OC)ccc3[nH]2)cc1C)c1ccccc1

**A:**
> 8.00
> 8.00
7.00 to 8.00
7.00 to 8.00
> 8.00

Give pEC50 for each listed item.
1. COC[C@@H](NC(=O)c1ccc(-c2cc(Cl)ccc2-c2nc3cc(OC)ccc3[nH]2)c(C(=O)O)c1)c1ccccc1
2. CCC[C@@H](NC(=O)c1ccc(-c2cc(Cl)ccc2-c2nc3cc(C#N)ccc3[nH]2)c(C(=O)O)c1)c1ccccc1

**A:**
> 8.00
7.00 to 8.00

Give pEC50 for each listed item.
1. CCC[C@@H](NC(=O)c1ccc(-c2cc(Cl)ccc2-c2nc3ccccc3[nH]2)c(C(=O)NO)c1)c1ccccc1
2. CCC[C@@H](NC(=O)c1ccc(-c2cc(Cl)ccc2-c2nc3ccccc3[nH]2)c(CO)c1)c1ccccc1
3. CCC[C@@H](NC(=O)c1ccc(-c2ccc(F)cc2-c2nc3cc(C(C)(C)C)ccc3[nH]2)c(C(=O)O)c1)c1ccccc1
4. CCC[C@@H](NC(=O)c1ccc(-c2cc(Cl)ccc2-c2nc3cc(OC)ccc3[nH]2)c(C(=O)O)c1)c1ccccc1
5. C[C@@H](NC(=O)c1ccc(-c2cc(Cl)ccc2-c2nc3ccccc3[nH]2)c(C(=O)O)c1)c1ccccc1Cl

**A:**
1: 7.00 to 8.00; 2: 7.00 to 8.00; 3: 7.00 to 8.00; 4: > 8.00; 5: 7.00 to 8.00

----------
Target: human APJ receptor (Homo sapiens, UniProt P35414)
Construct: expressed in transfected cells
Assay: Intracellular cAMP accumulation assay (APJ hcAMP, HTRF)
Assay type: cell-based
Settings: Table 2; HEK293 cells stably expressing human APJ receptor; read-out: APJ cAMP Human EC50
pEC50: −log10 of the molar value.
measurement-type: pEC50

Reference set, count: 10
CCC[C@@H](NC(=O)c1ccc(-c2cc(Cl)ccc2-c2nc3cc(Br)ccc3[nH]2)c(C(=O)O)c1)c1ccccc1 [Example 13] : > 8.00
CCC[C@@H](NC(=O)c1ccc(-c2cc(Cl)ccc2-c2nc3ccccc3[nH]2)c(C(=O)NS(=O)(=O)c2ccc(Cl)cc2)c1)c1ccccc1 [Example 45] : 6.30 to 7.00
CCC[C@@H](NC(=O)c1ccc(-c2cc(F)ccc2-c2nc3cc(OC)ccc3[nH]2)c(C(=O)O)c1)c1ccccc1 [Example 36] : > 8.00
CCC[C@@H](NC(=O)c1ccc(-c2cc(F)ccc2-c2nc3cc(C(C)(C)C)ccc3[nH]2)c(C(=O)O)c1)c1ccccc1 [Example 39] : 7.00 to 8.00
CCC[C@@H](NC(=O)c1ccc(-c2cc(Cl)ccc2-c2nc3ccccc3[nH]2)c(C(=O)OC)c1)c1ccccc1 [Example 43] : 6.30 to 7.00
COc1cccc([C@@H](C)NC(=O)c2ccc(-c3cc(Cl)ccc3-c3nc4ccccc4[nH]3)c(C(=O)O)c2)c1 [Example 74] : 7.00 to 8.00
CCC[C@@H](NC(=O)c1ccc(-c2cc(F)ccc2-c2nc3ccccc3[nH]2)c(C(=O)O)c1)c1ccccc1 [Example 33] : > 8.00
CCC[C@@H](NC(=O)c1ccc(-c2ccccc2-c2nc3ccccc3[nH]2)c(C(=O)O)c1)c1ccccc1 [Example 52] : > 8.00
CCC[C@@H](NC(=O)c1ccc(-c2ccccc2-c2nc3cc(C(C)(C)C)ccc3[nH]2)c(C(=O)O)c1)c1ccccc1 [Example 62] : > 8.00
CCC[C@@H](NC(=O)c1ccc(-c2cc(C(F)(F)F)ccc2-c2nc3cc(C(C)(C)C)ccc3[nH]2)c(C(=O)O)c1)c1ccccc1 [Example 60] : > 8.00

Give pEC50 for each listed item.
1. CCC[C@@H](NC(=O)c1ccc(-c2cc(Cl)ccc2-c2nc3cc(C(C)(C)C)ccc3[nH]2)c(C(=O)O)c1)c1ccccc1 [Example 19]
2. CCC[C@@H](NC(=O)c1ccc(-c2cc(Cl)ccc2-c2ncc(-c3ccccc3)[nH]2)c(C(=O)O)c1)c1ccccc1 [Example 4]
3. CCC[C@@H](NC(=O)c1ccc(-c2cc(C(F)(F)F)ccc2-c2nc3ccccc3[nH]2)c(C(=O)O)c1)c1ccccc1 [Example 51]

**A:**
["> 8.00", "> 8.00", "> 8.00"]

Give pEC50 for each listed item.
1. CCC[C@@H](NC(=O)c1ccc(-c2cc(Cl)ccc2-c2nc3ccccc3[nH]2)c(C(=O)NC#N)c1)c1ccccc1 [Example 6]
2. CCC[C@@H](NC(=O)c1ccc(-c2cc(Cl)ccc2-c2nc3c(F)cccc3[nH]2)c(C(=O)O)c1)c1ccccc1 [Example 17]
3. CCC[C@@H](NC(=O)c1ccc(-c2cc(Cl)ccc2-c2nc3cc(OC)ccc3[nH]2)c(-c2nc(=O)o[nH]2)c1)c1ccccc1 [Example 8]
4. CCC[C@@H](NC(=O)c1cc(C(=O)O)c(-c2cc(Cl)ccc2-c2nc3cc(C(C)(C)C)ccc3[nH]2)cc1C)c1ccccc1 [Example 68]
5. O=C(N[C@H](CN1CCOCC1)c1ccccc1)c1ccc(-c2cc(Cl)ccc2-c2nc3ccccc3[nH]2)c(C(=O)O)c1 [Example 5]
6. CCC[C@@H](NC(=O)c1ccc(-c2cc(C)ccc2-c2nc3cc(C(C)(C)C)ccc3[nH]2)c(C(=O)O)c1)c1ccccc1 [Example 38]

**A:**
["6.30 to 7.00", "> 8.00", "7.00 to 8.00", "> 8.00", "7.00 to 8.00", "> 8.00"]

Give pEC50 for each listed item.
1. CCC[C@@H](NC(=O)c1ccc(-c2cc(Cl)ccc2-c2nc3cccc(C)c3[nH]2)c(C(=O)O)c1)c1ccccc1 [Example 49]
2. CCC[C@@H](NC(=O)c1ccc(-c2cc(Cl)ccc2-c2nc3cc(C(C)C)ccc3[nH]2)c(C(=O)O)c1)c1ccccc1 [Example 48]

**A:**
["7.00 to 8.00", "> 8.00"]

Give pEC50 for each listed item.
1. CCC[C@@H](NC(=O)c1ccc(-c2cc(Cl)ccc2-c2nc3c(ccc4ccccc43)[nH]2)c(C(=O)O)c1)c1ccccc1 [Example 25]
2. CCC[C@@H](NC(=O)c1ccc(-c2cc(OC)ccc2-c2nc3cc(C(C)(C)C)ccc3[nH]2)c(C(=O)O)c1)c1ccccc1 [Example 61]
3. C[C@@H](NC(=O)c1ccc(-c2cc(Cl)ccc2-c2nc3ccccc3[nH]2)c(C(=O)O)c1)c1cccc2ccccc12 [Example 73]

**A:**
1. 7.00 to 8.00
2. > 8.00
3. 7.00 to 8.00

Give pEC50 for each listed item.
1. CCC[C@H](NC(=O)c1ccc(-c2cc(Cl)ccc2-c2nc3ccccc3[nH]2)c(C(=O)O)c1)c1ccccc1 [Example 71]
2. COC[C@@H](NC(=O)c1ccc(-c2cc(Cl)ccc2-c2nc3ccccc3[nH]2)c(C(=O)O)c1)c1ccccc1 [Example 69]

**A:**
7.00 to 8.00
> 8.00
